Catalogue of DPPH clearance rate values
Experiment: DPPH radical scavenging activity assay
Assay type: biochemical
Settings: 7020 ppm; n = 3; 30 min, 517 nm
Give the value in % but do not write % after it.

Worked cases, answers included:
>>> df
                                   molecule  readout_value
0  O=C1O[C@H]([C@@H](O)CO)C(O)=C1O [Vc, Vitamin C]          99.90
1  O=C(O)CCCCC1CCSS1 (stereo not shown) [D, Lipoic acid]          82.95
2  COc1c(O)cc2c(c1O)[C@@H]1O[C@H](CO)[C@@H](O)[C@H](O)[C@H]1OC2=O [C, Bergenin]          90.01

Now for another entry.
# get_value(readout='DPPH clearance rate', item= COc1c(O)cc2c(c1O)C1OC(COC(=O)CCCCC3CCSS3)C(O)C(O)C1OC2=O (stereo not shown) [B, Bergenin lipoic acid ester] )
97.64

* * *

Catalogue of DPPH clearance rate values
Assay: DPPH radical scavenging activity assay
Assay type: biochemical
Settings: 7.02 ppm; n = 3; 30 min, 517 nm
Give the value in % but do not write % after it.

Worked cases, answers included:
In [3]: df
Out[3]:
                                   molecule  units_text  readout_value
0           O=C1O[C@H]([C@@H](O)CO)C(O)=C1O           %          82.01
1  COc1c(O)cc2c(c1O)C1OC(COC(=O)CCCCC3CCSS3)C(O)C(O)C1OC2=O (stereo not shown)           %          27.56
2  COc1c(O)cc2c(c1O)[C@@H]1O[C@H](CO)[C@@H](O)[C@H](O)[C@H]1OC2=O           %          15.57

Now for another entry.
# get_value(readout='DPPH clearance rate', item= O=C(O)CCCCC1CCSS1 (stereo not shown) )
20.40

The measurements presented in this section are drawn from patent US10494377B1.
